target or test system: 5-HT2B receptor (Homo sapiens)
Construct: host or cells: CHO-K1
assay method text: 5-HT2B receptor antagonism, inhibition of 5-HT stimulated IP-1 accumulation (HTRF) in CHO-K1 cells
Format: cell-based
protocol conditions: 1 nM compound, 5-HT (5 nM) stimulated IP-1 accumulation
// reported inhibition at 0.001 µM per item
// note: answer is a bare numeric in %

Solved entries (count: 2):
[
  {
    "compound": "CC1CN(C(=N)N)c2ccc3c(F)cccc3c21 (centres unmarked)",
    "result": 29
  },
  {
    "compound": "CC1CN(C(=N)N)c2ccc3ccccc3c21.Cl (centres unmarked) [Example 3, hydrochloride]",
    "result": 2
  }
]

## Input Enter reported inhibition at 0.001 µM observed with 5-HT2B receptor (Homo sapiens) for CC1CN(C(=N)N)c2ccc3cc(F)ccc3c21.Cl (centres unmarked) [Example 1, hydrochloride]
## Output 2

## Input Consider next the compound CC1CN(C(=N)N)c2ccc3c(Cl)cccc3c21.Cl (centres unmarked) [Example 11, hydrochloride] in the same way.
## Output 53

## Input Consider next the compound CC1CN(C(=N)N)c2ccc3c(Br)cccc3c21.Cl (centres unmarked) [Example 2, hydrochloride] in the same way.
## Output 56

* * *

// reported inhibition at 1 µM per item
target or test system: 5-HT2B receptor (Homo sapiens)
Construct: host or cells: CHO-K1
assay method text: 5-HT2B receptor antagonism, inhibition of 5-HT stimulated IP-1 accumulation (HTRF) in CHO-K1 cells
Assay type: cell-based
protocol conditions: 1000 nM compound, 5-HT (5 nM) stimulated IP-1 accumulation
// note: answer is a bare numeric in %

Solved entries (count: 3):
[
  {
    "compound": "CC1CN(C(=N)N)c2ccc3cc(F)ccc3c21.Cl (stereo not shown) [Example 1, hydrochloride]",
    "experimental endpoint": "inhibition at 1 µM",
    "result": 97
  },
  {
    "compound": "CC1CN(C(=N)N)c2ccc3c(F)cccc3c21 (stereo not shown)",
    "experimental endpoint": "inhibition at 1 µM",
    "result": 100
  },
  {
    "compound": "CC1CN(C(=N)N)c2ccc3c(Cl)cccc3c21.Cl (stereo not shown) [Example 11, hydrochloride]",
    "experimental endpoint": "inhibition at 1 µM",
    "result": 96
  }
]

Attention now shifts to the item below.
## Input Please report the recorded inhibition at 1 µM for CC1CN(C(=N)N)c2ccc3c(Br)cccc3c21.Cl (stereo not shown) [Example 2, hydrochloride] .
## Output 96

* * *

// reported 5-HT2B receptor binding (% displacement) 1 nM per item
target or test system: 5-HT2B receptor (Homo sapiens, UniProt P41595)
Construct: host or cells: CHO-K1
Sequence (P41595 whole entry): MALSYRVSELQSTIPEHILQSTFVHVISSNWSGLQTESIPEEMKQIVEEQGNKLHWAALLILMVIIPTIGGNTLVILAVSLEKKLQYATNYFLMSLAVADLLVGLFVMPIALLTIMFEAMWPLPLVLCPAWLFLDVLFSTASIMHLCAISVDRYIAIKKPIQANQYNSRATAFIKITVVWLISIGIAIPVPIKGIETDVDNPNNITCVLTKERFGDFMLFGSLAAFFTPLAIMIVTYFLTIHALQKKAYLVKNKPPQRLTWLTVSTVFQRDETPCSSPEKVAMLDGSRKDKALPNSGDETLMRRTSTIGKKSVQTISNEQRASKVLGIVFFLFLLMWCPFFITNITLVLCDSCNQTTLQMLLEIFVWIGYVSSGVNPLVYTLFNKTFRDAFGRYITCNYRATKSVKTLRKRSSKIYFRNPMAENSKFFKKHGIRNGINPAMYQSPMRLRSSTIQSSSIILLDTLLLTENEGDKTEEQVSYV
assay method text: 5-HT2B receptor binding, ligand displacement assay, alternative (*) with 3H-mesulergine
protocol conditions: 1 nM compound; * 3H-mesulergine radioligand, SB 206553 reference
Marks after values point to notes of the source that are not given here.

[
  {
    "compound": "CC1CN(C(=N)N)c2ccc3c(C(F)(F)F)cccc3c21 (stereo not shown)",
    "result": "21%"
  },
  {
    "compound": "CC1CN(C(=N)N)c2ccc3c(S(C)(=O)=O)cccc3c21 (stereo not shown)",
    "result": "6* %"
  },
  {
    "compound": "C#Cc1cccc2c3c(ccc12)N(C(=N)N)CC3C (stereo not shown)",
    "result": "26* %"
  },
  {
    "compound": "CC1CN(C(=N)N)c2ccc3c(I)cccc3c21 (stereo not shown)",
    "result": "30* %"
  },
  {
    "compound": "CC1CN(C(=N)N)c2ccc3c([S+](C)[O-])cccc3c21 (stereo not shown)",
    "result": "4* %"
  }
]

## Input Please report the recorded 5-HT2B receptor binding (% displacement) 1 nM for COc1cccc2c3c(ccc12)N(C(=N)N)CC3C (stereo not shown) .
## Output 10* %

## Input Consider next the compound CSc1cccc2c3c(ccc12)N(C(=N)N)CC3C (stereo not shown) in the same way.
## Output 5* %
